Values were extracted from the supplement of paper PMC12636033.

# Tested on: 2Sb-muMax20 (muMax20 with two 1,3-bis(methyl)benzene Cys staples, A13C/A17C and Q88C/A92C, C-terminal Lys)
# PROTOCOL: PBM 8-mer E-score (E-score (rank enrichment, -0.5 to 0.5)); higher = stronger preferential binding
In all, about 33,000 sequences were measured (“E-score (rank enrichment, -0.5 to 0.5)”: median about -0.0028, highest 2% from about 0.23 on). Many of the other results were omitted from the sample, so the highest values are more common in it than they were.
Assign PBM 8-mer E-score to each entry below.
Numbers only.

Answer for every listed entry: what is its PBM 8-mer E-score? The entries follow.
1. AAAAAGTT
2. ATAGGGGA
3. AAATAACA

Response given:
[0.16, 0.18, 0.0873]

* * *

# Tested on: 2Sb-muMax20 (muMax20 with two 1,3-bis(methyl)benzene Cys staples, A13C/A17C and Q88C/A92C, C-terminal Lys)
# PROTOCOL: PBM 8-mer E-score (E-score (rank enrichment, -0.5 to 0.5)); higher = stronger preferential binding
The full ranking holds about 33,000 sequences; the median of “E-score (rank enrichment, -0.5 to 0.5)” is about -0.0028, and the highest 2% start at about 0.23. This excerpt belongs to a sample that is enriched for the highest values.
EXPERIMENTAL ENDPOINT: PBM 8-mer E-score
Give bare numbers.

* CTTCGTCC | -0.084
* GTTCGCTA | -0.0331
* TACCCCTA | 0.316
* AGCACGTA | 0.128
* GAGGCTCC | -0.117

Then there is this sequence:
Challenge: Fill in PBM 8-mer E-score for record `ATGCATAC`
Response given: 0.253

* * *

Provide the reported PBM 8-mer E-score of each item.
# Test system: 2Sb-muMax20 (muMax20 with two 1,3-bis(methyl)benzene Cys staples, A13C/A17C and Q88C/A92C, C-terminal Lys)
# PROTOCOL: PBM 8-mer E-score (E-score (rank enrichment, -0.5 to 0.5)); higher = stronger preferential binding
Whole data set: some 33,000 sequences, median “E-score (rank enrichment, -0.5 to 0.5)” near -0.0028, cut for the highest 2% near 0.23. For the sample, the highest values were picked, then their nearest neighbours and some sequences at random.
Answers are plain numbers.

* ACTAATAG | 0.261
* ATGGTTAC | -0.0452
* GTGGGGAA | 0.293
* ACATCCTC | 0.028
* CCTTATTA | 0.28
* GGAAAGCC | -0.00378

State recorded PBM 8-mer E-score for all listed sequences.
1. GCTCATTA
2. AACCGATC
3. ACGCTGCC
4. AGCGCAAC

Response given:
0.155
-0.0993
-0.0685
-0.0193

Need PBM 8-mer E-score for each of these sequences.
1. AACACTAG
2. AGACAATG

Response given:
1: 0.193; 2: -0.0359

* * *

# Tested on: 2Sb-muMax20 (muMax20 with two 1,3-bis(methyl)benzene Cys staples, A13C/A17C and Q88C/A92C, C-terminal Lys)
# PROTOCOL: PBM 8-mer E-score (E-score (rank enrichment, -0.5 to 0.5)); higher = stronger preferential binding
Over roughly 33,000 sequences, “E-score (rank enrichment, -0.5 to 0.5)” has its median near -0.0028; the highest 2% begin near 0.23. The entries come from a sample that favours the highest values as a whole.
Each record's class is read off its PBM 8-mer E-score using these ranges: low-valued (below 0.09), mid-valued (0.09 to below 0.2), high-valued (0.2 or more)

• ACGTGTAC = mid-valued
• ACAACCAT = high-valued

Challenge: Could you place `ACGTGTAT` in its proper category? Many thanks.
Response given: high-valued

Challenge: In plain terms, what class is `ATATATGG` ?
Response given: high-valued

Challenge: Into which bin does this sequence go? `AAATAATG`
Response given: high-valued

Challenge: Exam item: assign `CAAGGGGA` to the correct category.
Response given: high-valued

Challenge: Classify this sequence: `ACACCCTC`
Response given: low-valued

Challenge: Bin? `CACCCCTC`
Response given: high-valued

Challenge: Determine which band this sequence sits in: `CTAGGGTA`
Response given: low-valued

* * *

# Test system: 2Sb-muMax20 (muMax20 with two 1,3-bis(methyl)benzene Cys staples, A13C/A17C and Q88C/A92C, C-terminal Lys)
# PROTOCOL: PBM 8-mer E-score (E-score (rank enrichment, -0.5 to 0.5)); higher = stronger preferential binding
In all, about 33,000 sequences were measured (“E-score (rank enrichment, -0.5 to 0.5)”: median about -0.0028, highest 2% from about 0.23 on). The sample holds the highest values, similar sequences and a random draw of the others, so the mix is not that of the screen.
Provide the recorded PBM 8-mer E-score for the entries that follow.
One number for each entry.

- AAAGGCGA: 0.17
- CACGGCAC: -0.198
- CCTCATTC: 0.0874
- AAGCTAGG: -0.00121
- CCCCCACC: -0.264

Give PBM 8-mer E-score for all sequences that follow.
1. TATCTTGA
2. GGTTGTTA
3. AAAGCGGA
4. AGCATAAG

Response given:
[0.163, 0.116, 0.0459, 0.0893]

* * *

Kindly supply the reported PBM 8-mer E-score values for the records listed here.
# Tested on: 2Sb-muMax20 (muMax20 with two 1,3-bis(methyl)benzene Cys staples, A13C/A17C and Q88C/A92C, C-terminal Lys)
# PROTOCOL: PBM 8-mer E-score (E-score (rank enrichment, -0.5 to 0.5)); higher = stronger preferential binding
The full ranking holds about 33,000 sequences; the median of “E-score (rank enrichment, -0.5 to 0.5)” is about -0.0028, and the highest 2% start at about 0.23. For the sample, the highest values were picked, then their nearest neighbours and some sequences at random.
One number for each entry.

The following sequences have reported results that may help.
- ATATATGA: 0.203
- ACGTGTTA: 0.269
- ACGTGTGG: 0.151

Please report PBM 8-mer E-score for every entry that follows.
1. GCAACACC
2. ACGTGTGC
3. CAAGGGAA
4. CAGTCTGG
5. AAACGTGG
6. ACAACAAC

Response given:
0.0523
0.238
-0.0769
-0.18
0.0929
0.0959

* * *

# System: 2Sb-muMax20 (muMax20 with two 1,3-bis(methyl)benzene Cys staples, A13C/A17C and Q88C/A92C, C-terminal Lys)
# PROTOCOL: PBM 8-mer E-score (E-score (rank enrichment, -0.5 to 0.5)); higher = stronger preferential binding
In all, about 33,000 sequences were measured (“E-score (rank enrichment, -0.5 to 0.5)”: median about -0.0028, highest 2% from about 0.23 on). For the sample, the highest values were picked, then their nearest neighbours and some sequences at random.
EXPERIMENTAL ENDPOINT: PBM 8-mer E-score
Give bare numbers.

Some sequences with known PBM 8-mer E-score results, for comparison:
• AGCCACAC = 0.111
• AAGTGTCC = 0.0439

Hi there! I need PBM 8-mer E-score for each item below, if you can.
1. ATATTTAC
2. CAGTAAGC
3. ATTCCGTA
4. ACGAGGGG
5. AATGAGAA
6. CATCTTGA
7. ACACAGAG

Response given:
1. 0.22
2. 0.00962
3. -0.178
4. 0.0607
5. -0.0163
6. -0.0488
7. -0.0541

Here are 8 sequences. What values of PBM 8-mer E-score were reported for them?
1. TGGGGGAA
2. CTATCAAG
3. ACTAATAT
4. CATTCATA
5. CATCGCGA
6. TATCCAAA
7. GCCCCAAA
8. CATTCATC

Response given:
[0.0145, 0.0675, 0.0629, 0.264, 0.056, 0.103, 0.117, 0.0987]

* * *

# Test system: 2Sb-muMax20 (muMax20 with two 1,3-bis(methyl)benzene Cys staples, A13C/A17C and Q88C/A92C, C-terminal Lys)
# PROTOCOL: PBM 8-mer E-score (E-score (rank enrichment, -0.5 to 0.5)); higher = stronger preferential binding
Over roughly 33,000 sequences, “E-score (rank enrichment, -0.5 to 0.5)” has its median near -0.0028; the highest 2% begin near 0.23. The full list was thinned out, with the highest values kept by preference.
Assign PBM 8-mer E-score to each entry below.
Give bare numbers.

- CATAATAG: 0.258
- ATGGGGAA: 0.296
- AATAATAG: 0.146
- TAGTAGAA: -0.0551

Here are 5 sequences. What values of PBM 8-mer E-score were reported for them?
1. CAGTCCTC
2. ATATTTTA
3. AAGCACAC
4. CAAAGGAA
5. AACCGTAT

Response given:
1: 0.00033; 2: 0.238; 3: 0.0724; 4: 0.047; 5: -0.0505

Need PBM 8-mer E-score for each of these sequences.
1. GCATTTTA
2. CCGAATTA
3. CATTAATA
4. CCTTACTC

Response given:
1. 0.151
2. -0.0865
3. 0.148
4. 0.123

Lab note: each sequence below needs its PBM 8-mer E-score filled in.
1. AAGCGCTT
2. CAGGGGGG

Response given:
1: 0.309; 2: -0.241

Give one value of PBM 8-mer E-score per listed sequence.
1. CGTAATAG
2. GATTCATA

Response given:
1: 0.168; 2: 0.178

# return PBM 8-mer E-score for each item in the list
1. ATCTTGTA
2. GCCCTCAA
3. ACAGGATA

Response given:
[-0.0155, 0.0476, 0.046]
